These data points were gathered from PubChem BioAssay (NCI).

tested on: LOX IMVI melanoma; assay: NCI tumour cell line growth inhibition, 48 h; in the data active means GI50 below about 0.43 µM; inactive means the rest
The reply should name one outcome from active, inactive

Example entries begin here.
COc1ccc2c(c1)sc1nc(-c3ccccc3)c(-c3ccc(O)c(OC)c3)n12 : inactive
O=C(O)C[O][Sb][O]CC(=O)O : inactive
CN(C)C(=O)c1cc2cnc(Nc3ccc(-c4csc5c(=O)cc(N6CCNCC6)oc45)cc3)nc2n1C1CCCC1 : inactive
COc1cc2ccnc3c2c(c1OC)-c1ccc(=O)ccc1-3 : inactive
COc1cc2nc(N3CCCC3)nc(Nc3ccccc3)c2cc1OC : active

(Q) # outcome recorded in this test, key = "COC(=O)c1ccc2c(c1)C(=O)c1c-2n(CCCN)c(=O)c2cc([N+](=O)[O-])ccc12"
(A) active

(Q) # outcome recorded in this test, key = O=C(Nc1ccccc1)NS(=O)(=O)c1ccc(N2N=C3c4ccccc4CC3C2c2ccccn2)cc1 (stereo not drawn)
(A) inactive

(Q) # outcome recorded in this test, key = CCC[CH2][Ge]([CH2]CCC)([CH2]CCC)[O]C(=O)C(O)c1ccccc1 (stereo not drawn)
(A) inactive
